tested on: SARS-CoV-2; test: microbe, parasite or virus in culture; format: cell-based; details: Severe acute respiratory syndrome coronavirus 2, Vero C1008, Table 3, ketotifen titrated, alone or with fixed indomethacin
quantity_measured: EC50 (µM)
Lab book: enter the figure in µM, no units written.

Exercise: # get_value(readout='EC50', item= CN1CCC(=C2c3ccccc3CC(=O)c3sccc32)CC1 )
Key: 47.1

* * *

assay: in vitro; settings: African green monkey
quantity_measured: CC50 (µM)
Answer in µM, number only, no unit symbol.

Exercise: Fill in: CC50 of CN1CCC(=C2c3ccccc3CC(=O)c3sccc32)CC1 is ___
Key: 139
